Tested on: human platelets
Experiment: Repression of human platelet agglutination in vitro (PRP; PAF, collagen or ADP as inducer)
Assay type: cell-based
Conditions: inducer PAF 100 ng/ml, test compound 50 μM, read-out: repression ratio of platelet agglutination, PAF
In this section we review reported inhibition at 50 µM values for a set of molecules.

Here's what some known entries look like.
>>> experimental_result("COC1=C(OC)C(=O)C(C/C=C(\\C)CC/C=C(\\C)CC/C=C(\\C)CC/C=C(\\C)C(=O)O)=C(C)C1=O [Compound A]")
"36%"
>>> experimental_result("COC1=C(OC)C(=O)C(C/C=C(\\C)CC/C=C(\\C)CC/C=C(\\C)CC/C=C(\\C)CC/C=C(\\C)C(=O)O)=C(C)C1=O [Compound I]")
"3.9%"
>>> experimental_result("COc1c(O)c(C)c(C/C=C(\\C)CC/C=C(\\C)CC/C=C(\\C)C(=O)O)c(OC)c1OC [Compound D]")
"23.8%"
>>> experimental_result("COc1c(O)c(C)c(C/C=C(\\C)CC/C=C(\\C)CC/C=C(\\C)CC/C=C(\\C)CC/C=C(\\C)CC/C=C(\\C)C(=O)O)c(OC)c1OC [Compound G]")
"8.1%"
>>> experimental_result("COC1=C(OC)C(=O)C(C/C=C(\\C)CC/C=C(\\C)C(=O)O)=C(C)C1=O [Compound H]")
"28.2%"
>>> experimental_result("COC1=C(OC)C(=O)C(C/C=C(\\C)CC/C=C(\\C)CC/C=C(\\C)C(=O)O)=C(C)C1=O [Compound C]")
"3.4%"
>>> experimental_result("COc1c(O)c(C)c(C/C=C(\\C)CC/C=C(\\C)CC/C=C(\\C)CC/C=C(\\C)CC/C=C(\\C)C(=O)O)c(OC)c1OC [Compound F]")
"5.9%"
>>> experimental_result("COc1c(O)c(C)c(C/C=C(\\C)CC/C=C(\\C)CC/C=C(\\C)CC/C=C(\\C)C(=O)O)c(OC)c1OC [Compound B]")
"36.8%"
>>> experimental_result("COC1=C(OC)C(=O)C(C/C=C(\\C)CC/C=C(\\C)CC/C=C(\\C)CC/C=C(\\C)CC/C=C(\\C)CC/C=C(\\C)C(=O)O)=C(C)C1=O [Compound J]")
"2.7%"

Let us examine a further case.
Lookup result for COc1c(O)c(C)c(C/C=C(\C)CC/C=C(\C)C(=O)O)c(OC)c1OC [Compound E] ; measured inhibition at 50 µM: 28.1%
